CIC IC50 for assorted compounds
System: Human immunodeficiency virus 1
Experimental Protocol: Antiviral activity against PBMC infected with Human immunodeficiency virus type 1 NL4-3 isolate.
Assay type: functional
Form entry: value (nM) — number only.

Below: 5 compounds and their reported CIC IC50.
Mol Smiles | Experimental Target | Measure | Value
CC(C)(C)NC(=O)[C@@H]1C[C@@H]2CCCC[C@@H]2CN1C[C@@H](O)[C@H](Cc1ccccc1)NC(=O)[C@H](CC(N)=O)NC(=O)c1ccc2ccccc2n1 | Human immunodeficiency virus 1 | CIC IC50 | 23
CC(C)[C@H](NC(=O)c1ccc2ccccc2n1)C(=O)N[C@@H](Cc1ccccc1)[C@H](O)CN1C[C@H]2CCCC[C@H]2C[C@H]1C(=O)NC(C)(C)C | Human immunodeficiency virus 1 | CIC IC50 | 54
CC(C)(C)NC(=O)[C@@H]1C[C@@H]2CCCC[C@@H]2CN1C[C@@H](O)[C@H](Cc1ccccc1)NC(=O)[C@@H](NC(=O)OCc1ccccc1)C(C)(C)S(C)(=O)=O | Human immunodeficiency virus 1 | CIC IC50 | 11
CC(C)(C)NC(=O)[C@@H]1C[C@@H]2CCCC[C@@H]2CN1C[C@@H](O)[C@H](Cc1ccccc1)NC(=O)[C@H](CS(C)(=O)=O)NC(=O)c1ccc2ccccc2n1 | Human immunodeficiency virus 1 | CIC IC50 | 22
CC(C)(C)NC(=O)[C@@H]1C[C@@H]2CCCC[C@@H]2CN1C[C@@H](O)[C@H](Cc1ccccc1)NC(=O)[C@@H](NC(=O)c1ccc2ccccc2n1)C(C)(C)S(C)(=O)=O | Human immunodeficiency virus 1 | CIC IC50 | 4.9

In the following, a different compound is considered.
For record CSC(C)(C)[C@H](NC(=O)c1ccc2ccccc2n1)C(=O)N[C@@H](Cc1ccccc1)[C@H](O)CN1C[C@H]2CCCC[C@H]2C[C@H]1C(=O)NC(C)(C)C the listed CIC IC50 is 27

----------
Experimental Target: Human immunodeficiency virus type 1 protease (Human immunodeficiency virus 1, UniProt Q72874)
Experimental Protocol: Inhibitory activity against P2 site in HIV protease.
Measure: Ki (pM)
Form entry: value (pM) — number only.

Below: 4 compounds and their reported Ki.
Mol Smiles | Ki (pM)
CSC(C)(C)[C@H](NC(=O)c1ccc2ccccc2n1)C(=O)N[C@@H](Cc1ccccc1)[C@H](O)CN1C[C@H]2CCCC[C@H]2C[C@H]1C(=O)NC(C)(C)C | 2590
CC(C)(C)NC(=O)[C@@H]1C[C@@H]2CCCC[C@@H]2CN1C[C@@H](O)[C@H](Cc1ccccc1)NC(=O)[C@H](CS(C)(=O)=O)NC(=O)c1ccc2ccccc2n1 | 113
CC(C)(C)NC(=O)[C@@H]1C[C@@H]2CCCC[C@@H]2CN1C[C@@H](O)[C@H](Cc1ccccc1)NC(=O)[C@@H](NC(=O)OCc1ccccc1)C(C)(C)S(C)(=O)=O | 162
CC(C)(C)NC(=O)[C@@H]1C[C@@H]2CCCC[C@@H]2CN1C[C@@H](O)[C@H](Cc1ccccc1)NC(=O)[C@@H](NC(=O)c1ccc2ccccc2n1)C(C)(C)S(C)(=O)=O | 172

In the following, a different compound is considered.
For record CC(C)[C@H](NC(=O)c1ccc2ccccc2n1)C(=O)N[C@@H](Cc1ccccc1)[C@H](O)CN1C[C@H]2CCCC[C@H]2C[C@H]1C(=O)NC(C)(C)C the listed Ki is 550
